method-description: chemical genetic growth profiling, strain panel (AID 1159580);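 further: tested at 20 µM; growth read once vehicle control cultures reached saturation at 30 °C; 1 = growth at the plate median or of vehicle wells; lower values mean less growth of the strain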
reported-conditions: S. cerevisiae deletion strains, growth OD, locus YBR229C, strain ROT2, active compounds read low
Among all 5,500 compounds or so, about 2,000 (36%) were called active. Not shown: some 18% with an inconclusive outcome. This is one part of the list.
Quick reference for normalized growth among some molecules
reported-metric: normalized growth

molecule	quantitative-result
O=C1c2ccccc2C(=O)N1CNc1cccc(Cl)c1	1
O=c1c(O)cccc2cc(O)c(O)c(O)c12	0.844
Cc1cc(NC(=O)Nc2cccc(C(F)(F)F)c2)n(C)n1	0.997
Cc1ccc(NC(=S)C(C#N)C(=O)N2CCCC2)c(C)c1 (stereo not drawn)	0.998
O=C(O)C1c2ccccc2C(=O)N(Cc2ccc3c(c2)OCO3)C1c1cccnc1 (stereo not drawn)	1.01
COc1cc(Cc2cnc(N)nc2N)cc(OC)c1OC	0.998
NC(Cc1ccc(Cl)cc1)C(=O)O (stereo not drawn)	0.96
CN1CCC[C@H]1c1cccnc1	0.992
O=C(CNc1cccc(Cl)c1)c1ccc(Cl)cc1	0.933
CCOC(=O)c1ccc(N2CCOCC2)c(N=Cc2cc(Cl)ccc2O)c1	0.901
Nc1ccccc1C(=O)NCCc1ccc(Cl)cc1	0.949
CC(C)=CCC/C(C)=C/CO	1.02
COC1=CC23CCCN2CCc2cc4c(cc2C3C1O)OCO4 (stereo not drawn)	1.01

###

method-description: chemical genetic growth profiling, strain panel (AID 1159580);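 further: tested at 20 µM; growth read once vehicle control cultures reached saturation at 30 °C; 1 = growth at the plate median or of vehicle wells; lower values mean less growth of the strain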
reported-conditions: S. cerevisiae deletion strains, growth OD, locus YPL153C, strain RAD53, active compounds read low
Out of some 5,500 compounds screened, about 2,000 (36%) were called active. Not shown: some 18% with an inconclusive outcome. Some of the results follow.
reported-metric: normalized growth

Cn1cc(Br)c(-c2cccc(NS(=O)(=O)c3ccc(Cl)cc3)c2)n1 0.994
FC(F)(F)c1ccncc1-c1nc(-c2ccc(Cl)cc2)cs1 0.917
CC(C)Sc1c(Cl)cccc1NC(=O)Nc1cccc(C(F)(F)F)c1 0.911
Cn1ncc(-c2nc(-c3ccc(Cl)cc3)cs2)c1N 0.776
S=C(NCCc1csc2ccccc12)Nc1ccc(Cl)cc1 0.775
COC(=O)c1cc([N+](=O)[O-])ccc1S(=O)(=O)Cc1ccc(Cl)cc1 0.951
O=C(Nc1ccc(F)cc1F)c1cc(Cl)ccc1O 0.922
O=S(=O)(Nc1c(F)cccc1F)c1ccc(Cl)c(Cl)c1 0.927
COc1cc(C2SCCS2)cc(Br)c1OC(=O)NC(=O)c1c(Cl)cccc1Cl 0.941
O=C(OCCNc1ccc([N+](=O)[O-])cn1)c1ccc([N+](=O)[O-])o1 0.351
S=C(NCc1cccs1)Nc1cc(Cl)cc(Cl)c1 0.862

###

method-description: chemical genetic growth profiling, strain panel (AID 1159580);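 further: tested at 20 µM; growth read once vehicle control cultures reached saturation at 30 °C; 1 = growth at the plate median or of vehicle wells; lower values mean less growth of the strain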
reported-conditions: S. cerevisiae deletion strains, growth OD, locus YBR229C, strain ROT2, active compounds read low
Screen size: about 5,500 compounds; about 2,000 (36%) were called active. About 18% were inconclusive and are not listed. The list shows a part of the results.
Listing of recorded normalized growth by entry.
reported-metric: normalized growth

CCCc1ncc(C[n+]2ccccc2C)c(N)n1 1 (inactive)
Cn1cnc2c1c(=O)[nH]c(=O)n2C 1.01 (inactive)
Cn1c(=O)[nH]c2ncn(C)c2c1=O 1.01 (inactive)
O=S(=O)(c1ccc(Cl)cc1)N1CCN(Cc2ccccc2)CC1 0.99 (inactive)
N=C(N)SCc1c(F)cccc1Cl 0.986 (inactive)
CC(=O)CCCCn1c(=O)c2c(ncn2C)n(C)c1=O 1.02 (inactive)
Cc1ccc(S(=O)(=O)N2CCN(CCOc3ccccc3)CC2)cc1 0.994 (inactive)
CN(C)CCC[C@@]1(c2ccc(F)cc2)OCc2cc(C#N)ccc21 1.01 (inactive)
Clc1cc(Cl)cc(Br)c1 1.02 (inactive)
Cn1c(=O)c2c(ncn2CCO)n(C)c1=O 1 (inactive)
CCCCC#Cc1ccc(C(=O)NNC(=O)Nc2cc(Cl)cc(Cl)c2)o1 1.01 (inactive)
O=C(Nc1ccc([N+](=O)[O-])cc1Cl)c1cc(Cl)ccc1O 0.991 (inactive)
Cc1ccc(S(=O)(=O)N2CCCCCC2)cc1 0.997 (inactive)
